- experimental_system: MAT2A homodimer (Homo sapiens, UniProt P31153)
- Construct: inferred from Ni sepharose purification and imidazole elution
- Sequence (P31153 whole entry): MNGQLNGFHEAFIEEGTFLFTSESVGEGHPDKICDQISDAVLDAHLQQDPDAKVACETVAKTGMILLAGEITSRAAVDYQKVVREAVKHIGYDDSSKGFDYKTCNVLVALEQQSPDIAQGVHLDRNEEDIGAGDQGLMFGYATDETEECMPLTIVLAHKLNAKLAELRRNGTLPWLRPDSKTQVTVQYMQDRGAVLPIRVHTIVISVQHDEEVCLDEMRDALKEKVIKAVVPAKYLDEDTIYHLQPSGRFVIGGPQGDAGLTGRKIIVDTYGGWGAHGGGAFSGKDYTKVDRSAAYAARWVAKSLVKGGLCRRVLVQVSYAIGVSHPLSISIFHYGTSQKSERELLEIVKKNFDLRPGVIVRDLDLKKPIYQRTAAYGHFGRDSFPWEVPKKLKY
- assay_name: Biochemical assay: inhibition of recombinant MAT2A homodimer (phosphate release, PiColorLock Gold)
- condition_parameters: MAT2A IC50 score; read-out: Enzyme Inhibition
pIC50: −log10 of the molar value.
quantity_name: pIC50

smiles_code | pIC50
COc1ccc(-n2c(=O)c(-c3ccc4nc(C)n(C)c4c3)nc3ccc(OCC(F)(F)F)nc32)cc1 | > 7.00
CCOc1ccc2cc(-c3ccc(OC)cc3)c(=O)n(-c3ccc(Cl)cc3)c2n1 | > 7.00
Cn1cc2cc(-c3nc4ccc(NCC(F)(F)F)nc4n(-c4ccc(OC(F)F)cc4)c3=O)ccc2n1 | > 7.00
CCOc1ccc2nc(-c3ccc4nn(C)cc4c3)c(=O)n(-c3ccc(OC(F)F)cc3)c2n1 | > 7.00
COc1ccc(-c2cc3cnc(NCC(F)(F)F)nc3n(-c3ccncc3)c2=O)cc1 | 6.00 to 7.00

-- ask Quick check: pIC50 of "COc1ccc(-c2cc3cnc(SC)nc3n(-c3ccc(Cl)cc3)c2=O)cc1" ?
-- reply 6.00 to 7.00

-- ask Quick check: pIC50 of "COc1ccc(-n2c(=O)c(-c3ccc(OC)c(F)c3)cc3cnc(NCC(F)(F)F)nc32)cc1" ?
-- reply 6.00 to 7.00
